System: PmTbr T-box DNA-binding domain (GST fusion);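 further: 200 nM protein in PBS on universal arrays averaged over duplicate arrays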
Sequence: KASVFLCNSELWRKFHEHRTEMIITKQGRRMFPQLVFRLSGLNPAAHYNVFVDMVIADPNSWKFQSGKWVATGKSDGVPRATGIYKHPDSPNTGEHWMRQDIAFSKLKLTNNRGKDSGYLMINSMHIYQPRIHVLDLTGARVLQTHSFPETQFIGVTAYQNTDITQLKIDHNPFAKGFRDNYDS
Assay: PBM E-score of 8-mer (E-score (dimensionless, -0.5 to 0.5)); higher = stronger binding preference
Details: the construct has about 5 more residues each side
The full ranking holds about 33,000 sequences; the median of “E-score (dimensionless, -0.5 to 0.5)” is about -0.049, and the highest 2% start at about 0.37. Shown is part of a subset that was picked to be rich in the highest values.
measured.quantity: PBM E-score of 8-mer

    seq_text     measured_quantity  endpoint_value
 0  TGCGTGAA  PBM E-score of 8-mer           0.368
 1  CGCGCTCA  PBM E-score of 8-mer            0.13
 2  AGCGAACA  PBM E-score of 8-mer          0.0494
 3  CACGTGAA  PBM E-score of 8-mer           0.176
 4  CGCGAGAA  PBM E-score of 8-mer            0.32
 5  CTCAAGAG  PBM E-score of 8-mer         0.00045
 6  AATTGGTC  PBM E-score of 8-mer          -0.139
 7  CGAGGGAG  PBM E-score of 8-mer         -0.0838
 8  GGAGGAGA  PBM E-score of 8-mer          -0.011
 9  TGCGAGAA  PBM E-score of 8-mer           0.391
10  GGCGAATA  PBM E-score of 8-mer          0.0105
11  CCCCTAAG  PBM E-score of 8-mer         -0.0688
12  ATGGCACG  PBM E-score of 8-mer           0.189
13  CGCGTGAC  PBM E-score of 8-mer           0.342
14  AACCTAAG  PBM E-score of 8-mer           -0.12
15  AGAGTTCG  PBM E-score of 8-mer          -0.201
16  CTCTGTGC  PBM E-score of 8-mer         -0.0888
17  ATCACCTC  PBM E-score of 8-mer            0.42
18  GGCGTGAC  PBM E-score of 8-mer           0.386
19  AGCGTGAC  PBM E-score of 8-mer           0.352
20  CACCTAAC  PBM E-score of 8-mer           0.408
21  GGCGTGCA  PBM E-score of 8-mer        -0.00275
22  GTGTCACA  PBM E-score of 8-mer           0.445
23  CTCACCGC  PBM E-score of 8-mer           0.055

---

Tested on: PmTbr T-box DNA-binding domain (GST fusion);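 further: 200 nM protein in PBS on universal arrays averaged over duplicate arrays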
Sequence: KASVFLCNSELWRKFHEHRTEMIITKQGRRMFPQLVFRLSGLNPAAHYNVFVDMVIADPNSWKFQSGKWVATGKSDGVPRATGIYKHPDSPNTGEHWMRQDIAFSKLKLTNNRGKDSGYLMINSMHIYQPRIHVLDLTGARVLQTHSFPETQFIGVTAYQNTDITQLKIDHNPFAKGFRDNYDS
Test: PBM E-score of 8-mer (E-score (dimensionless, -0.5 to 0.5)); Tbr is Tbrain of the sea star Patiria miniata (Pm) or the sea urchin Strongylocentrotus purpuratus (Sp); higher = stronger binding preference
Details: target sequence: T-box / the construct has about 5 more residues each side
Whole data set: some 33,000 sequences, median “E-score (dimensionless, -0.5 to 0.5)” near -0.049, cut for the highest 2% near 0.37. What follows is part of a selection rich in the highest values, with near analogues and random picks from the rest.
measured.quantity: PBM E-score of 8-mer

In [3]: df
Out[3]:
    seq_text  endpoint_value
 0  AGTTGTTG           0.195
 1  CCCAAACG          -0.119
 2  AGGTGGCG           0.412
 3  GTGTTACA           0.386
 4  ATTCTCGG          -0.082
 5  CAAGCACC           0.129
 6  CCACCTCA           0.229
 7  CGTTGTGA             0.2
 8  ACCTCCGA           0.253
 9  GCACAGGA          -0.162
10  AATTGGAA         -0.0872
11  ACACCTCA            0.47
12  AGTGTTGG           0.386
13  AGTTGTTA           0.388
14  CCTTGTTA           0.126
15  CTGGCGAC           0.124
16  GTCAGTGA           0.122
17  AAACTTGC           0.122
18  AGTTGTCG           0.309
19  ACTTGTGA           0.411
20  ACAAGAGG          -0.108
21  ACGAGAGG          0.0873
22  CCCATTTA          0.0289
23  CTGCCACC           0.265
24  AGGTGGCC          0.0319
25  AGTGTTTG           0.275
26  AAAGACCG          -0.149
27  ACGCGCGC           0.157
28  ATAGAACC         -0.0785
29  ACTTGTTA           0.372
30  GCTTGTCA          0.0851
31  ATATGTTG          0.0196
32  ACACCTCT           0.486
33  ATGTGTTA           0.446
34  ACTTGTGG           0.196
35  CTTCGATA        -0.00351
36  AAACTCTC        -0.00208
37  ATGTGTTG           0.398
38  AGACCTCA          0.0571
39  CGATTGCC         -0.0231
40  ATTCCTCC          -0.291
41  TCTTGGCA          0.0497
42  CTGTTAAA            0.23
43  AGTGTTGC           0.356
44  CGCTAACG           0.371
45  AGTTGTGA           0.387
46  CCACTTGC           0.158
47  AATCGCAT          0.0479
48  GAACGACA           0.106
49  TCGCGCGA           0.389
50  ATACTGAA          -0.116
51  ACTTGTCA           0.404
52  TAACCTCA          -0.152
53  TGCTAACA           0.369
54  AGACCTCT          -0.301
55  ATGTGTTC           0.156
56  CTAGCACC           0.449
57  AGGTACCA         -0.0398
58  CGTGTTGA           0.295
59  GAGGCGCC           0.269
60  ACACTTGC           0.407
61  ATCTGTGA           0.282
62  ACACTTGG           0.395
63  GCATTGCA         -0.0859
64  ACGATAAA           0.122
65  GCGCGCGA           0.276
66  GTGTGTTA           0.274
67  AATACTCT          -0.111
68  CCAGAGGC          0.0947
69  AATCGCAG          0.0445
70  GCTGTTGA          0.0473
71  TGACCTCA          0.0125
72  AGAGTACC          -0.132
